Test target: T1, human MSLN full-length protein (NCBI: AAH09272.1) expressed on HEK293T-hMSLN-B8 cells (human, UniProt Q13421 296-598)
T1 construct: Whole encoded precursor
T1 sequence (Q13421 other isoform, or with tags, fused parts or gaps limits assumed): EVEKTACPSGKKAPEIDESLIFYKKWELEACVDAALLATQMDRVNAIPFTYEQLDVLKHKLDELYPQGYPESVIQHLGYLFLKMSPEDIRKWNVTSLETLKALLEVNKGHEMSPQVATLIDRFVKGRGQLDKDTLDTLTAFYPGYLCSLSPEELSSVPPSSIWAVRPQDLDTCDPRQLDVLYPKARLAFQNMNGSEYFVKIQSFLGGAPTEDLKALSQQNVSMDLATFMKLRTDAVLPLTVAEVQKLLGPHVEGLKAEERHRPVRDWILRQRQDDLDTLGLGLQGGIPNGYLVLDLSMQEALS
Procedure text: FACS on HEK293T-hMSLN-B8 cells
Measure: EC50 (nM)
Report as a plain number; the unit nM is understood.

Example entries and their recorded answers appear below.
S009-F2.23.12 (antibody, human IgG1, kappa, V domains shown, human-murine chimeric antibody, human IgG1/kappa constant regions) VH: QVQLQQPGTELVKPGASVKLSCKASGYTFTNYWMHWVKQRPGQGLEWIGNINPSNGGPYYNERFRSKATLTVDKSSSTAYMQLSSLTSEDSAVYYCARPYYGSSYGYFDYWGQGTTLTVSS VL: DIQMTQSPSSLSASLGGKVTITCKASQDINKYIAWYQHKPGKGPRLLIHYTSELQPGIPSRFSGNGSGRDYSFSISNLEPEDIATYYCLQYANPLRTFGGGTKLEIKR: 2.39
S009-F2.13.3 (antibody, human IgG1, kappa, V domains shown, human-murine chimeric antibody, human IgG1/kappa constant regions) VH: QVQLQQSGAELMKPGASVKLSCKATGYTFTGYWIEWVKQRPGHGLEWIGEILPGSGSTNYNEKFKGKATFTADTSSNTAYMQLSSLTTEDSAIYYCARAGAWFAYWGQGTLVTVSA VL: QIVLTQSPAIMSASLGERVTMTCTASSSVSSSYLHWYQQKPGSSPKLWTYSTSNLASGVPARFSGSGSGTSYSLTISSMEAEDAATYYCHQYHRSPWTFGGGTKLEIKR: 1.15

Now turn to the next binder.
**Query** Fill blank: measured EC50 of the binder S009-F2.39.3 (antibody, human IgG1, kappa, V domains shown, human-murine chimeric antibody, human IgG1/kappa constant regions) VH: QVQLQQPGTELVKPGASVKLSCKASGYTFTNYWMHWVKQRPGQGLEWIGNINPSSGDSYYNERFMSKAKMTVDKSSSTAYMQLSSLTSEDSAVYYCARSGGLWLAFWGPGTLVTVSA VL: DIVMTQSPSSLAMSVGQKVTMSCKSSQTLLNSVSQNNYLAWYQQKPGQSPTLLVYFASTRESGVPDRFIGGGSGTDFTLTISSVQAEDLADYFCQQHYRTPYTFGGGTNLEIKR is ____.
**Result** 5.79

Data origin, for the record: patent US20250250357A1
